target.desc: NLRP3 (Homo sapiens, UniProt Q96P20)
Sequence (Q96P20 whole entry): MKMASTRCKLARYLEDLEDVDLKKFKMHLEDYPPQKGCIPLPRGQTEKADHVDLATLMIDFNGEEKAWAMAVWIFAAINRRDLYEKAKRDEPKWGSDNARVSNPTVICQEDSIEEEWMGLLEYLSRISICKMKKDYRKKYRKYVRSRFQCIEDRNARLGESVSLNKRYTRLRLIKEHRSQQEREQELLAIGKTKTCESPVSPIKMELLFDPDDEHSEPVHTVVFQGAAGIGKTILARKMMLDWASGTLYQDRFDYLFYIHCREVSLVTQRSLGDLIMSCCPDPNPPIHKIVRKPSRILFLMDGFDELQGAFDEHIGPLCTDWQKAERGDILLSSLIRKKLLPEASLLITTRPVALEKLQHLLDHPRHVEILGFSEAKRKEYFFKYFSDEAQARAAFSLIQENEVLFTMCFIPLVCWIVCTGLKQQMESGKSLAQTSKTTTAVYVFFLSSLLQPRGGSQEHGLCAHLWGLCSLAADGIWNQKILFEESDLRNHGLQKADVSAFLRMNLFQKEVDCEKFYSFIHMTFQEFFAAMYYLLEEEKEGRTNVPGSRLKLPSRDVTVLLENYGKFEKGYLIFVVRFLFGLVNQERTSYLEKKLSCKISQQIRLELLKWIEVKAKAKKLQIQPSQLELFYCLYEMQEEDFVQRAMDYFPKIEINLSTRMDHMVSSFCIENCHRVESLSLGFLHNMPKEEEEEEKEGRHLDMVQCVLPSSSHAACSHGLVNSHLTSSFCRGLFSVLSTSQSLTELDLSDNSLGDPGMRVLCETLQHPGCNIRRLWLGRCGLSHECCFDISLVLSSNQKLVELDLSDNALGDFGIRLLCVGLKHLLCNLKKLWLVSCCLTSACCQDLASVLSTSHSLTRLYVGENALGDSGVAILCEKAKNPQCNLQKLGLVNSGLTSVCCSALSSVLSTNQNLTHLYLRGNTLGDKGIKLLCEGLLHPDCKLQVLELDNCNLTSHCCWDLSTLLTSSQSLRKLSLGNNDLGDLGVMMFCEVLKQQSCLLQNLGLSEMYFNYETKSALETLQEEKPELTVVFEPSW
test.description: Human whole blood IL1β release assay (LPS + nigericin, AlphaLisa IL-1β; HWB IC50)
Assay type: cell-based
Design: Human whole blood in Li-heparin tubes was obtained from healthy donors from a volunteer donor panel; from tissue; host or cells: human whole blood from healthy donors
conditions: IL-1β release
pIC50: −log10 of the molar value. Counter-ions that a name gives are not always drawn.
measure.name: pIC50

>>> print(df.to_string())
                                    compound  assay_result
 0  COc1cc(-c2ccc3c(c2NC(=O)NS(=O)(=O)c2cc(CN(C)C)n(C(C)C)n2)CCC3)ccn1        ≥ 6.30
 1  COc1cc(-c2ccc3c(c2NC(=O)NS(=O)(=O)c2ccc(C(C)C)c(CN(C)C)c2)CCC3)ccn1 [Example 282, sodium salt]        ≥ 6.30
 2  COc1cc(-c2ccc3c(c2NC(=O)NS(=O)(=O)c2cn(C(C)C)nn2)CCC3)ccn1 [Example 234, sodium salt]        ≥ 6.00
 3  CC(C)n1ccc(S(=O)(=O)NC(=O)Nc2c(-c3ccnc(C4CC4)c3)ccc3c2CCC3)n1 [Example 295, sodium salt]        ≥ 6.00
 4  COc1cc(-c2ccc3c(c2NC(=O)NS(=O)(=O)N2CC4CCN(C)C4C2)CCC3)ccn1 (stereo not shown) [Example 320, potassium salt]        ≥ 6.30
 5  [2H]C([2H])([2H])Oc1cc(-c2ccc3c(c2NC(=O)NS(=O)(=O)c2ccn(C4CC4)n2)CCC3)ccn1 [Example 279, sodium salt]        ≥ 6.30
 6  CC(C)n1ccc(S(=O)(=O)NC(=O)Nc2c(-c3ccncc3)cc(F)c3c2CCC3)n1        ≥ 6.30
 7  N#Cc1cc(-c2ccc3c(c2NC(=O)NS(=O)(=O)c2ccn(C4CCOC4)n2)CCC3)ccn1 (stereo not shown) [Example 181, sodium salt]        ≥ 6.30
 8  CCOc1cc(-c2ccc3c(c2NC(=O)NS(=O)(=O)c2ccn(C(C)C)n2)CCC3)ccn1        ≥ 6.00
 9  COc1cc(-c2ccc3c(c2NC(=O)NS(=O)(=O)c2cc(C(=O)N(C)C)n(C)n2)CCC3)ccn1 [Example 169, sodium salt]        ≥ 6.30
10  COc1cc(-c2ccc3c(c2NC(=O)NS(=O)(=O)c2ccn(C(C)(C)CN4CC(F)(F)C4)n2)CCC3)ccn1        ≥ 6.30
11  CC(C)(O)Cn1ccc(S(=O)(=O)NC(=O)Nc2c(-c3ccnc(C#N)c3)ccc3c2CCC3)n1 [Example 183, sodium salt]        ≥ 6.30
12  CC(C)n1ccc(S(=O)(=O)NC(=O)Nc2c(-c3ccnc(OC4CCOCC4)c3)ccc3c2CCC3)n1 [Example 292, sodium salt]        ≥ 6.00
13  O=C(Nc1c(-c2ccncc2)ccc2c1CCC2)NS(=O)(=O)c1ccn(C2CC2)n1        ≥ 6.30
14  CC(C)c1cc(F)cc(-c2cccc(C#N)c2)c1NC(=O)NS(=O)(=O)c1cc(CN(C)C)n(C)n1        ≥ 6.30
15  CC(C)c1cc(F)cc(-c2cccnc2)c1NC(=O)NS(=O)(=O)c1cc(CN(C)C)n(C(C)C)n1        ≥ 6.00
16  COCCN(CCOC)C(=O)c1cc(S(=O)(=O)NC(=O)Nc2c(-c3ccnc(OC(C)C)c3)cc(F)cc2C(C)C)nn1C [Example 166, sodium salt]        ≥ 5.00
17  COc1cc(-c2cc(F)c3c(c2NC(=O)NS(=O)(=O)c2ccn(C(C)C)n2)CCC3)ccn1        ≥ 6.00
18  COc1cc(-c2ccc3c(c2NC(=O)NS(=O)(=O)c2ccn(C4CC4)n2)CCC3)c(F)cn1 [Example 255, sodium salt]        ≥ 6.30
19  COc1cc(-c2cc(Cl)c3c(c2NC(=O)NS(=O)(=O)c2ccn(C(C)C)n2)CCC3)ccn1 [Example 226, sodium salt]        ≥ 6.00
20  COc1cc(-c2ccc3c(c2NC(=O)NS(=O)(=O)c2ccn(C4CC4)n2)CCO3)ccn1 [Example 248, sodium salt]        ≥ 6.30
21  COc1cc(-c2ccc3c(c2NC(=O)NS(=O)(=O)c2ccc(=O)n(C(C)C)c2)CCC3)ccn1        ≥ 6.30
22  O=C(Nc1c(-c2ccncc2)ccc2c1CCC2)NS(=O)(=O)c1ccn(C2CCC2)n1        ≥ 6.30
23  COc1cc(-c2ccc3c(c2NC(=O)NS(=O)(=O)c2coc(C4CC4)n2)CCC3)ccn1 [Example 293, sodium salt]        ≥ 5.30
24  CN(C)CC(C)(C)n1ccc(S(=O)(=O)NC(=O)Nc2c(-c3ccnc(OC4CC4)c3)ccc3c2CCO3)n1 [Example 198, sodium salt]        ≥ 6.30
25  CC(C)c1cc(F)cc(-c2ccccc2)c1NC(=O)NS(=O)(=O)c1cc(CN(C)C)n(C(C)C)n1        ≥ 5.30
26  COc1cc(-c2ccc3c(c2NC(=O)NS(=O)(=O)c2cc(N(C)C)cnn2)CCC3)ccn1        ≥ 5.30
27  CC(C)n1ccc(S(=O)(=O)NC(=O)Nc2c(-c3cc[nH]c(=O)c3)ccc3c2CCC3)n1        ≥ 6.00

Each recorded value in this set is attributed to patent US20200361895A1.
